Target: Protein kinase C alpha type (Homo sapiens, UniProt P17252)
Test: Inhibition of PKC alpha (unknown origin) in presence of 1 mM ATP
pIC50: −log10 of the molar value.
RESULT_TYPE: pIC50

Please review the entries below; each comes with its answer.
pIC50 for CC1CCCOc2nc(ccc2C(N)=O)-n2c(=O)[nH]c3nccc(c32)O1 (stereo not given) is 5.19

pIC50 for CC1CCCOc2nc(c(-c3cnc[nH]3)cc2C(N)=O)-n2c(=O)[nH]c3nccc(c32)O1 (stereo not given) is 5.17

[a] CC1CCCn2ccc(=O)c3ccc(nc32)-n2c(=O)[nH]c3nccc(c32)O1 (stereo not given)
[b] CC1CCN(C)c2c(F)cnc3cc(F)c(nc23)-n2c(=O)[nH]c3nccc(c32)O1 (stereo not given)
[c] CC1CCN2c3nc(ccc3C(=O)NC2(C)C)-n2c(=O)[nH]c3nccc(c32)O1 (stereo not given)
Order each entry by recorded pIC50, climbing from the minimum. Enter labels, ranked according to the request.
a, b, c

====

Target: UniProt:Q04759
Sequence (Q04759 whole entry): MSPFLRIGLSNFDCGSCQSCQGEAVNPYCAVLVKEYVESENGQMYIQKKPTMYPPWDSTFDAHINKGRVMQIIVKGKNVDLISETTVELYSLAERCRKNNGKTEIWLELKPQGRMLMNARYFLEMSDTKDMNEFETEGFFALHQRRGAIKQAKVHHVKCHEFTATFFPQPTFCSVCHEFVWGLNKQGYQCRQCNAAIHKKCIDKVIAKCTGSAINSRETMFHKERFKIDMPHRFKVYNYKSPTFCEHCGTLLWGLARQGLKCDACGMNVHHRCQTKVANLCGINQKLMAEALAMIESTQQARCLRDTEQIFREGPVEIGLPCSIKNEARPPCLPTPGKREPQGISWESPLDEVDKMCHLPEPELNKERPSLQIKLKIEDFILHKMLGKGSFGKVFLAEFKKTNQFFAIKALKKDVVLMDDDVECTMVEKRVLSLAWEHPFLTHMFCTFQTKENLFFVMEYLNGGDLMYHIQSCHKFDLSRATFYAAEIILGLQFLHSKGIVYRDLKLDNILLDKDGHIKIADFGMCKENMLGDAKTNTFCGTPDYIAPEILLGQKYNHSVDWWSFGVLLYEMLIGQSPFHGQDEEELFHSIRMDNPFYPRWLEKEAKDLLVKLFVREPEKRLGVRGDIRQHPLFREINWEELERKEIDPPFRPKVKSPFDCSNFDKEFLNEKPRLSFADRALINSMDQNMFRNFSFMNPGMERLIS
Assay: Inhibition of PKC theta in TCR-stimulated human PBMC assessed as inhibition of IL-2 release
Format: cell-based
pIC50: −log10 of the molar value.
RESULT_TYPE: pIC50

Please review the entries below; each comes with its answer.
Field pIC50 (UniProt:Q04759), entry CC1CCCOc2ccnc3[nH]c(=O)n(c23)-c2ccc3c(=O)ccn1c3n2 (stereo unspecified) : 8.12

Field pIC50 (UniProt:Q04759), entry CC1CCCOc2ccnc3[nH]c(=O)n(c23)-c2ccc3nccc1c3n2 (stereo unspecified) : 8.38

Field pIC50 (UniProt:Q04759), entry CC1CCN2c3nc(ccc3C(=O)NC2(C)C)-n2c(=O)[nH]c3nccc(c32)O1 (stereo unspecified) : 8.22

Field pIC50 (UniProt:Q04759), entry CC1CCCn2ccc(=O)c3ccc(nc32)-n2c(=O)[nH]c3nccc(c32)O1 (stereo unspecified) : 7.28

Field pIC50 (UniProt:Q04759), entry CC1CCC(C)c2ccnc3ccc(nc23)-n2c(=O)[nH]c3nccc(c32)O1 (stereo unspecified) : 7.55

Field pIC50 (UniProt:Q04759), entry CC1CCn2ccc(=O)c3cc(F)c(nc32)-n2c(=O)[nH]c3nccc(c32)O1 (stereo unspecified) : 7.57

[a] CC1CCN(C)c2ccnc3ccc(nc23)-n2c(=O)[nH]c3nccc(c32)O1 (stereo unspecified)
[b] CC1CCC(C)n2ccc(=O)c3cc(F)c(nc32)-n2c(=O)[nH]c3nccc(c32)O1 (stereo unspecified)
Would you mind telling me which has the lower recorded pIC50 between a and b ? Answer format: the label of the selected item.
b
(b: 7.77, a: 8.19)

[A] CC1CCC(C)n2ccc(=O)c3ccc(nc32)-n2c(=O)[nH]c3nccc(c32)O1 (stereo unspecified)
[B] CC1CCCOc2cccc(n2)-n2c(=O)[nH]c3nccc(c32)O1 (stereo unspecified)
[C] CC1CCN(C)c2c(F)cnc3cc(F)c(nc23)-n2c(=O)[nH]c3nccc(c32)O1 (stereo unspecified)
[D] CN1CCN(c2nc(C3=C(c4c[nH]c5ccccc45)C(=O)NC3=O)c3ccccc3n2)CC1 [SOTRASTAURIN]
Order each entry by recorded pIC50, climbing from the minimum. Enter labels, ranked according to the request.
B, D, A, C

[I] CC1CCCOc2ccnc3[nH]c(=O)n(c23)-c2cccc(n2)O1 (stereo unspecified)
[II] CC1CCOc2ccnc3ccc(nc23)-n2c(=O)[nH]c3nccc(c32)O1 (stereo unspecified)
[III] CC1CCC(C)Oc2ccnc3[nH]c(=O)n(c23)-c2nc(c(C(N)=O)cc2F)O1 (stereo unspecified)
[IV] CC1CCN(C)c2ccnc3cc(F)c(nc23)-n2c(=O)[nH]c3nccc(c32)O1 (stereo unspecified)
[V] CC1CCCOc2nc(c(-c3cnc[nH]3)cc2C(N)=O)-n2c(=O)[nH]c3nccc(c32)O1 (stereo unspecified)
Order each entry by recorded pIC50, climbing from the minimum. Enter labels, ranked according to the request.
II, V, I, III, IV

[1] CC1CCCOc2nc(ccc2C(N)=O)-n2c(=O)[nH]c3nccc(c32)O1 (stereo unspecified)
[2] CC1CCCOc2ccnc3[nH]c(=O)n(c23)-c2nc(c(C(N)=O)cc2-c2ncc[nH]2)O1 (stereo unspecified)
[3] CC1CC(C)Oc2ccnc3[nH]c(=O)n(c23)-c2cccc(n2)O1 (stereo unspecified)
[4] CC1CCCOc2nc(c(-c3nnc[nH]3)cc2C(N)=O)-n2c(=O)[nH]c3nccc(c32)O1 (stereo unspecified)
Order each entry by recorded pIC50, climbing from the minimum. Enter labels, ranked according to the request.
4, 3, 1, 2

Origin of the recorded values: ChEMBL document CHEMBL5625263
